Hey, just so you know, these numbers are from paper PMC6955894.

# TESTED_ON: VEGF-A165 (human, UniProt P15692-4 27-191)
# Sequence (P15692 other isoform, or with tags, fused parts or gaps): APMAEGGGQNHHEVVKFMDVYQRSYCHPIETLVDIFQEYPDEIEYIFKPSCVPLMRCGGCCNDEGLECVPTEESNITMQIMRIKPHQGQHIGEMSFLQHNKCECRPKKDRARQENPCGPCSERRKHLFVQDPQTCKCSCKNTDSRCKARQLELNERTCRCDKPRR
# ASSAY_COMMENT: MST; TBSET: 10 mM Tris, 100 mM NaCl, 50 mM KCl, 0.05 mM EDTA, 0.05% Tween 20, pH 7; MST with 25 nM aptamer, 20 min at 20 C, read at room temperature; microarray in TBSETB (TBSET + 1% BSA), 1 h for the co-incubation
# CONDITION_LABEL: protein: recombinant; chain copies: 2; label: 5' FITC; G-quadruplex with three G-quartets
READOUT_TYPE: pKd
Quick note: pKd means taking -log10 of the concentration in moles per liter.

For TGTGGGGGTGGACGGGCCGGGTAGATAGTATGTGCATTC (structured_DNA) [V7t1-FITC] , what is its reported pKd?
6.81
